# MEASURED TARGET: Peroxisome proliferator-activated receptor gamma (Homo sapiens)
# PROCEDURE DETAILS: ATG_PPARg_TRANS: Attagene TRANS-FACTORIAL HepG2 Assay for human Peroxisome Proliferator-activated Receptor-gamma (PPARg) (AID 2283007)
Inconclusive results are not listed. Calls of active or inactive are those of the source. How the source made its calls: active means hit-call score of the fitted dose curve at least 0.9, where 1 is the maximum; inconclusive means response in the unintended direction; inactive means score below 0.9.
Form entry, call: pick from active, inactive

- COMPOUND: "CCC/C=C/CO"
  MEASURED TARGET: "Peroxisome proliferator-activated receptor gamma (Homo sapiens)"
  ASSIGNED CATEGORY: "inactive"
- COMPOUND: "Nc1c(Br)cc([N+](=O)[O-])cc1Br"
  MEASURED TARGET: "Peroxisome proliferator-activated receptor gamma (Homo sapiens)"
  ASSIGNED CATEGORY: "inactive"
- COMPOUND: "CCN(CC)c1ccc(N=Nc2ccccc2)cc1"
  MEASURED TARGET: "Peroxisome proliferator-activated receptor gamma (Homo sapiens)"
  ASSIGNED CATEGORY: "active"
- COMPOUND: "OCC(O)CC(F)(F)C(F)(F)C(F)(F)C(F)(F)F (stereo not given)"
  MEASURED TARGET: "Peroxisome proliferator-activated receptor gamma (Homo sapiens)"
  ASSIGNED CATEGORY: "inactive"
- COMPOUND: "CC(C)CC=C(C=O)c1ccccc1"
  MEASURED TARGET: "Peroxisome proliferator-activated receptor gamma (Homo sapiens)"
  ASSIGNED CATEGORY: "active"
- COMPOUND: "Oc1ccc(C2(c3ccc(O)c(C4CCCCC4)c3)CCCCC2)cc1C1CCCCC1"
  MEASURED TARGET: "Peroxisome proliferator-activated receptor gamma (Homo sapiens)"
  ASSIGNED CATEGORY: "active"
- COMPOUND: "CC(C)OC=O"
  MEASURED TARGET: "Peroxisome proliferator-activated receptor gamma (Homo sapiens)"
  ASSIGNED CATEGORY: "inactive"
- COMPOUND: "CCOC(C=C(C)CCC=C(C)C)OCC"
  MEASURED TARGET: "Peroxisome proliferator-activated receptor gamma (Homo sapiens)"
  ASSIGNED CATEGORY: "active"

Q: // param item: OCC(F)(F)C(F)(F)C(F)(F)C(F)(F)C(F)(F)C(F)(F)CO ; yields the recorded call
Ans: inactive

Q: Now this one: O=C(c1ccccc1)c1ccc(O)cc1O
Ans: active

###

# MEASURED TARGET: Peroxisome proliferator-activated receptor gamma (Homo sapiens)
# PROCEDURE DETAILS: ATG_PPARg_TRANS: Attagene TRANS-FACTORIAL HepG2 Assay for human Peroxisome Proliferator-activated Receptor-gamma (PPARg) (AID 2283007)
Results filed as inconclusive are left out. Activity calls are given as the source filed them. The calls were made as follows: active = hit-call score of the fitted dose curve at least 0.9, where 1 is the maximum; inconclusive = response in the unintended direction; inactive = score below 0.9.
QUANTITY: AC50

- MOLECULE: "CC(C)Nc1ccc(NC(C)C)c2c1C(=O)c1ccccc1C2=O"
  AC50: "inactive"
- MOLECULE: "FC(F)(F)C(F)(F)C(F)(F)CC1CO1 (stereo not given)"
  AC50: "inactive"
- MOLECULE: "OCCCCC(F)(F)C(F)(F)C(F)(F)C(F)(F)F"
  AC50: "inactive"
- MOLECULE: "Cc1ccc2c(c1)OCC(=O)CO2"
  AC50: "inactive"

Now for another entry.
Q: # returns recorded AC50 (system: Peroxisome proliferator-activated receptor gamma (Homo sapiens)) for O=C(O)C(F)(F)OC(F)(F)C(F)(F)OC(F)(F)C(F)(F)OC(F)(F)F
Ans: 17.9 µM (active)

###

# PROCEDURE DETAILS: ATG_GATA_CIS: Attagene CIS-FACTORIAL HepG2 Assay for human GATA Binding Protein (AID 2282944)
# REPORTED CONDITIONS: HepG2 GATA cis-element reporter, Attagene multiplex mRNA; actives raise or lower the signal
# Procedure: ATG_CIS is a cell-based, multiplexed-readout assay that uses HepG2, a human liver cell line, with measurements taken at 24 hours after chemical dosing in a 24-well plate.ATG_GATA_CIS is one of 52 assay component(s) measured or calculated from the ATG_CIS assay. […] This assay endpoint, ATG_GATA_CIS, was analyzed with bidirectional fitting relative to DMSO as the negative control and baseline of activity. […]
Calls of active or inactive are those of the source. How the source made its calls: active means hit-call score of the fitted dose curve at least 0.9, where 1 is the maximum; inactive means score below 0.9.
QUANTITY: outcome

# count of solved cases: 4
- COMPOUND: "OCCCCl"
  outcome: "inactive"
- COMPOUND: "Cc1cc(=O)[nH]c(C(C)C)n1"
  outcome: "inactive"
- COMPOUND: "O=C1c2ccccc2C(=O)c2c(Cl)cccc21"
  outcome: "inactive"
- COMPOUND: "CC(C)=CCCC(C)O (stereo not given)"
  outcome: "inactive"

Then this compound:
Q: Bench note: what outcome did CCCCCCCC/C=C\CCCCCCCC(=O)N(C)CC(=O)O show?
Ans: inactive

###

# PROCEDURE DETAILS: ATG_PXRE_CIS: Attagene CIS-FACTORIAL HepG2 Assay for human Pregnane X Receptor Element (PXRE) (AID 2282957)
# REPORTED CONDITIONS: HepG2 Attagene CIS-FACTORIAL PXRE reporter, mRNA; actives raise or lower the signal
The source made the active and inactive calls. Rule for the calls: active = hit-call score of the fitted dose curve at least 0.9, where 1 is the maximum; inactive = score below 0.9.
QUANTITY: AC50

Example results:
- COMPOUND: "CC(=O)CCC(C)C"
  AC50: "52.9 µM (active)"
- COMPOUND: "COCCOCCC[Si](C)(O[Si](C)(C)C)O[Si](C)(C)C"
  AC50: "0.752 µM (active)"
- COMPOUND: "CCCC(=O)OCC(COC(=O)CCC)OC(=O)CCC"
  AC50: "0.0935 µM (active)"
- COMPOUND: "C=C(C)C(=O)OCC(F)(F)C(F)(F)C(F)(F)C(F)F"
  AC50: "inactive"
- COMPOUND: "O=C(c1ccccc1)c1ccc(O)cc1O"
  AC50: "48.6 µM (active)"

Q: Reported AC50, compound C[Si](C)O[Si](C)C : ____
Ans: inactive

Q: Check O=C1C=CC(=O)N1c1ccccc1 too.
Ans: inactive

Q: Would you mind doing CCc1cc(Cc2cc(CC)c(N)c(CC)c2)cc(CC)c1N as well?
Ans: 1.1 µM (active)

Q: Similarly, CCN(CCO)S(=O)(=O)C(F)(F)C(F)(F)C(F)(F)C(F)(F)C(F)(F)C(F)(F)C(F)(F)C(F)(F)F ?
Ans: 9.56 µM (active)

Q: Repeat for the following compound: C#CC(O)CCC (configuration not stated)
Ans: inactive

Q: Repeat for the following compound: CCN(CC)c1ccc2c(c1)Oc1cc(N(CC)CC)ccc1C21OC(=O)c2ccccc21
Ans: 1.04 µM (active)

Q: Now this one: CC(C)CCCC(C)CCO (configuration not stated)
Ans: inactive

###

# PROCEDURE DETAILS: ATG_FoxO_CIS: Attagene CIS-FACTORIAL HepG2 Assay for human Forkhead box O (FoxO) (AID 2282943)
# REPORTED CONDITIONS: HepG2 Attagene cis-reporter, FoxO element, mRNA; actives raise or lower the signal
Activity calls are given as the source filed them. Rule for the calls: active = hit-call score of the fitted dose curve at least 0.9, where 1 is the maximum; inactive = score below 0.9.
QUANTITY: AC50

- COMPOUND: "Cc1cc(C)c(O)c(C(C)(C)C)c1"
  AC50: "inactive"
- COMPOUND: "COC(F)(C(F)F)C(F)(F)F (stereo not given)"
  AC50: "inactive"
- COMPOUND: "NS(=O)(=O)C(F)(F)C(F)(F)C(F)(F)C(F)(F)C(F)(F)C(F)(F)F"
  AC50: "inactive"
- COMPOUND: "CC(C)Nc1ccc(NC(C)C)c2c1C(=O)c1ccccc1C2=O"
  AC50: "inactive"
- COMPOUND: "CCCCCCCCCCCC(=O)Cl"
  AC50: "inactive"
- COMPOUND: "CC(C)(C)c1cc(Cc2cc(C(C)(C)C)c(O)c(C(C)(C)C)c2)cc(C(C)(C)C)c1O"
  AC50: "inactive"
- COMPOUND: "N#Cc1ccccc1O"
  AC50: "inactive"
- COMPOUND: "CCCC(=O)OCC(COC(=O)CCC)OC(=O)CCC"
  AC50: "inactive"
- COMPOUND: "NCC(F)(F)C(F)(F)C(F)(F)C(F)(F)C(F)(F)C(F)(F)F"
  AC50: "inactive"
- COMPOUND: "O=C(Cl)c1ccc(Cl)cc1Cl"
  AC50: "inactive"

Q: What value of measured AC50 is listed for CCCCC(CC)COC(=O)c1ccc(N(C)C)cc1 (stereo not given) ?
Ans: inactive

Q: Would you kindly repeat that for O=C(O)C(F)(F)C(F)(F)C(F)(F)OC(F)(C(F)(F)F)C(F)(F)F ?
Ans: inactive

Q: Now this one: CCN=c1cc2oc3cc(NCC)c(C)cc3c(-c3ccccc3C(=O)OCC)c-2cc1C
Ans: inactive

Q: Here is the next compound: CC(C)CC=C(C=O)c1ccccc1
Ans: inactive

Q: For Cc1ccc([N+](=O)[O-])c(C)c1 then?
Ans: inactive

Q: Query CN(C(=O)C(F)(F)C(F)(F)C(F)(F)F)[Si](C)(C)C next
Ans: inactive

Q: One more compound: O=c1[nH]cccc1O
Ans: inactive
